# system: human V2 receptor (Homo sapiens)
# Construct: co-transfected with promiscuous G-alpha-16)
# Sequence (P30518 whole entry): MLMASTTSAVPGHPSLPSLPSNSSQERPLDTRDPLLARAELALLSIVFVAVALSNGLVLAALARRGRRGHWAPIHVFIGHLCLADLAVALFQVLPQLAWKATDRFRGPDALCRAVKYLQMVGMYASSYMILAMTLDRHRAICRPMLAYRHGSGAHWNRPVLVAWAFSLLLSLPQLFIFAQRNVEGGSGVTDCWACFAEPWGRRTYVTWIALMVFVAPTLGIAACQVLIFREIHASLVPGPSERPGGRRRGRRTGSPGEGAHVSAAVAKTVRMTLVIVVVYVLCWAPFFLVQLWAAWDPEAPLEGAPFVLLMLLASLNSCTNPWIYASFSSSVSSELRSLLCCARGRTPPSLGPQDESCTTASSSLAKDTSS
# measurement protocol: Cellular in vitro assay for determining the vasopressin receptor activity (aequorin luminescence)
# measurement parameters: CHO cell line transfected with the human V2 receptor (and Gα16); agonist [Arg8]-vasopressin; read-out: IC50 hV2
Quick list: IC50 per entry.

| compound | system | IC50 |
| --- | --- | --- |
| NC(=O)OCC(NC(=O)Cn1nc(-c2ccc(Cl)cc2)n(C[C@H](O)C(F)(F)F)c1=O)c1ccccc1C(F)(F)F (single isomer, unassigned) | human V2 receptor (Homo sapiens) | 8.5 nM |
| NC(=O)OCC[C@H](NC(=O)Cn1nc(-c2ccc(Cl)cc2)n(C[C@H](O)C(F)(F)F)c1=O)c1ccccc1C(F)(F)F | human V2 receptor (Homo sapiens) | 9.9 nM |
| O=C(Cn1nc(-c2ccc(Cl)s2)n(Cc2ccccc2F)c1=O)NC(CO)c1cccc(F)c1F (stereo not shown) | human V2 receptor (Homo sapiens) | 45 nM |
| O=C(Cn1nc(-c2ccc(Cl)cc2)n(CC2CCCCC2)c1=O)NC(CO)c1cccc(Cl)c1F (stereo not shown) | human V2 receptor (Homo sapiens) | 28 nM |
| Cc1cccc([C@H](CO)NC(=O)Cn2nc(-c3ccc(Cl)cc3)n(C[C@H](O)C(F)(F)F)c2=O)c1C | human V2 receptor (Homo sapiens) | 2.4 nM |
| CN(C(=O)Cn1nc(-c2ccc(Cl)cc2)n(C[C@H](O)C(F)(F)F)c1=O)C(CO)c1cccc(C(F)(F)F)c1 (stereo partly shown) | human V2 receptor (Homo sapiens) | 7.7 nM |
| Cc1ccccc1C(CCO)NC(=O)Cn1nc(-c2ccc(Cl)cc2)n(C[C@H](O)C(F)(F)F)c1=O (single isomer, unassigned) | human V2 receptor (Homo sapiens) | 5.8 nM |
| O=C(Cn1nc(-c2ccc(Cl)cc2)n(C[C@H](O)C(F)(F)F)c1=O)NC(CO)c1cccc(C(F)F)c1 (stereo partly shown) | human V2 receptor (Homo sapiens) | 5.1 nM |
| O=C(Cn1nc(-c2ccc(Cl)cc2)n(C2CC2)c1=O)NC(CO)c1cccc(C(F)(F)F)c1 (racemic) | human V2 receptor (Homo sapiens) | 40.2 nM |
| NCC(NC(=O)Cn1nc(-c2ccc(Cl)cc2)n(C[C@H](O)C(F)(F)F)c1=O)c1ccccc1C(F)(F)F (single isomer, unassigned; diastereomer ii) | human V2 receptor (Homo sapiens) | 8.9 nM |
| O=C(Cn1nc(-c2ccc(Cl)cc2)n(C[C@H](O)C(F)(F)F)c1=O)NC(CN1CCOC1=O)c1cccc(C(F)(F)F)c1 (single isomer, unassigned) | human V2 receptor (Homo sapiens) | 15 nM |
| Cc1csc(-c2nn(CC(=O)NC(CO)c3cccc(Cl)c3F)c(=O)n2CC(C)C)c1Cl (stereo not shown) | human V2 receptor (Homo sapiens) | 136 nM |
| NC(=O)OCC(NC(=O)Cn1nc(-c2ccc(Cl)cc2)n(C[C@H](O)C(F)(F)F)c1=O)c1ccccc1Cl (stereo partly shown) | human V2 receptor (Homo sapiens) | 4.9 nM |
